Target: T1, PhoEF1A M420S•GTP•PfuPelota complex (Pyrococcus horikoshii | Pyrococcus …, UniProt O59153 1-428, M420S)
T1 construct: elongation factor aEF1A of Pyrococcus horikoshii (PhoEF1A); complex of the EF1A mutant, GTP and PfuPelota; also called M420(I423)S; P. horikoshii aEF1A-M420S
T1 sequence 1: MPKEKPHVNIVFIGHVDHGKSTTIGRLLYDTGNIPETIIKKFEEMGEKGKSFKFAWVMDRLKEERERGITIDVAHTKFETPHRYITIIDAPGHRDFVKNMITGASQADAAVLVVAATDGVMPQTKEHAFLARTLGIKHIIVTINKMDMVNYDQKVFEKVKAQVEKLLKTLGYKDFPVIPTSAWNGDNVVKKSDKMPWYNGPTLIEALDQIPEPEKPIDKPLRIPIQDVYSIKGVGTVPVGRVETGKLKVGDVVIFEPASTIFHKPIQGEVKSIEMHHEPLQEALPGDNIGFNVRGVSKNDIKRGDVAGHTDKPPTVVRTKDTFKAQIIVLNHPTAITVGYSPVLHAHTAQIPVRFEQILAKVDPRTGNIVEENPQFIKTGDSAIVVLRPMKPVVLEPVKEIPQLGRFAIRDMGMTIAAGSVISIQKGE
T1 sequence 2: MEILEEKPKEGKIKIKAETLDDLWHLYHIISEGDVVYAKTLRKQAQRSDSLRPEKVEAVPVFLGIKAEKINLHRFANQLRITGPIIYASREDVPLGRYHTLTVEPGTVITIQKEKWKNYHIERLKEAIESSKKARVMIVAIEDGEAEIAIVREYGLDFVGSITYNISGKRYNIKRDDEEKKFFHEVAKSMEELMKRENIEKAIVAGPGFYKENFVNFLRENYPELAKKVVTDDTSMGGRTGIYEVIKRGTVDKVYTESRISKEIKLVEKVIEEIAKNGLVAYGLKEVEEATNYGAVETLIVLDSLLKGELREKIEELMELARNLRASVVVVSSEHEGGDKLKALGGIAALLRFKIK
Test: fluorescence polarisation; FITC-labeled PhoP1C14 peptide (50 nM) mixed with 0-160 µM of the complex of each PhoEF1A mutant, GTP and PfuPelota; 20 mM HEPES-KOH pH 7.6, 10 mM MgCl2, 150 mM KCl, 0.1 mg/ml BSA; 25 °C; nonlinear regression, one site specific binding (GraphPad Prism 6); average of three replicates
Settings: both partners purified
Primed or numbered codes have the meaning given here. Where no end group is shown, it is not given here. FITC′ = fluorescein isothiocyanate label
Parameter Measured: Kd (µM)

- Binder: "{FITC′}-SEEEALAGLSALFG (also called FITC-labeled peptide of PhoP1C14; source: synthetic peptide (Hokkaido System Science Co., Ltd)) [FITC-labeled C-terminal 14-mer peptide of P. horikoshii aP1 (PhoP1C14)]"
  Experimental Result: 80.1
